Measured values drawn from patent US20230158157A1 for this set.

Biological target: EML4-ALK (Homo sapiens, UniProt Q9UM73)
Construct: endogenous in cells; host or cells: H3122 (NSCLC), single-cell clone after CRISPR knock-in of HiBit; the other entry of the earlier key: EML4 (Q9HC35, Echinoderm microtubule-associated protein-like 4)
Sequence (Q9UM73 with tags, fused parts or gaps): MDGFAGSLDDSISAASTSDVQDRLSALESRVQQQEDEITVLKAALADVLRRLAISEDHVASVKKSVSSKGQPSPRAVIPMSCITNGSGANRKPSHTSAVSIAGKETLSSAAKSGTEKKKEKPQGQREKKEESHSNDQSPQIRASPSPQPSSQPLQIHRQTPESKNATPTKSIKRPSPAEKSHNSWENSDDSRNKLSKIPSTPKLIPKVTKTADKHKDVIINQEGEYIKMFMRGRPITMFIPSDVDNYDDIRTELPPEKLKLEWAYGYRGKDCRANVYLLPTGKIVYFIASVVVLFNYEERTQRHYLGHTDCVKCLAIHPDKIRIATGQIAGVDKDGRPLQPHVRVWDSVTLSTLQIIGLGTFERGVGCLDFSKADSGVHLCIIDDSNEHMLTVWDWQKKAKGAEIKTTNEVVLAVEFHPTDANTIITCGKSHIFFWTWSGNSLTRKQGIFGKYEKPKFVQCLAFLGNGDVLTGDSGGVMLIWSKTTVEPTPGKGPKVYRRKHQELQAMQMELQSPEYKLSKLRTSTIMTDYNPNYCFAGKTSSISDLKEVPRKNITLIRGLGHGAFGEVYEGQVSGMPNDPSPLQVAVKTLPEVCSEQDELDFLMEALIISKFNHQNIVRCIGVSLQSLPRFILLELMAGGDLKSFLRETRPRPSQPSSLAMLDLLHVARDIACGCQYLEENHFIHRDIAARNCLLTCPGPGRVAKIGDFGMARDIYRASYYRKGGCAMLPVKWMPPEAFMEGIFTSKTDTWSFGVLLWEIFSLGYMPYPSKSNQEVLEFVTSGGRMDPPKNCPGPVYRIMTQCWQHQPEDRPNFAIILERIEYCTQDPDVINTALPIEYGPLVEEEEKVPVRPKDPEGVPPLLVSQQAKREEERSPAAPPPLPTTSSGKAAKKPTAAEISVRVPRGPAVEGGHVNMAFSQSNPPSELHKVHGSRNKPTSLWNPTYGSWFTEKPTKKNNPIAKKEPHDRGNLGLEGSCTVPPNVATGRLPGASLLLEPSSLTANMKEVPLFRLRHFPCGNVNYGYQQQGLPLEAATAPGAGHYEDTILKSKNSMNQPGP
Assay: EML4-ALK HiBit degradation assay in CRISPR-tagged H3122 cells (Nano-Glo HiBit Lytic Detection)
Assay type: cell-based
Details: NCI-H3122, Table 1, first Dmax column; H3122 EML4-ALK-HiBit, 16 hours; read-out: Degradation Dmax
PROPERTY_NAME: Dmax (%)
Give the quantity in %, number only.

Answered cases to consult:
[
  {
    "COMPOUND": "COc1cc(CCN(C)C(=O)CCCCCNC(=O)COc2cccc3c2C(=O)N(C2CCC(=O)NC2=O)C3=O)c(C)cc1Nc1ncc(Cl)c(Nc2ccccc2S(=O)(=O)C(C)C)n1 (stereo not shown)",
    "TARGET_OF_ASSAY": "EML4-ALK (Homo sapiens, UniProt Q9UM73)",
    "PROPERTY_NAME": "Dmax",
    "UNIT_OF_MEASUREMENT": "%",
    "RECORDED_VALUE": 34
  },
  {
    "COMPOUND": "COc1cc(CCN(C)C(=O)CCCCCC#Cc2cccc3c2C(=O)N(C2CCC(=O)NC2=O)C3=O)c(C)cc1Nc1ncc(Cl)c(Nc2ccccc2S(=O)(=O)C(C)C)n1 (stereo not shown)",
    "TARGET_OF_ASSAY": "EML4-ALK (Homo sapiens, UniProt Q9UM73)",
    "PROPERTY_NAME": "Dmax",
    "UNIT_OF_MEASUREMENT": "%",
    "RECORDED_VALUE": 43.4
  },
  {
    "COMPOUND": "COc1cc(CCNCCCCCCCC(=O)N[C@H](C(=O)N2C[C@H](O)C[C@H]2C(=O)N[C@@H](C)c2ccc(-c3scnc3C)cc2)C(C)(C)C)c(C)cc1Nc1ncc(Cl)c(Nc2ccccc2S(=O)(=O)C(C)C)n1",
    "TARGET_OF_ASSAY": "EML4-ALK (Homo sapiens, UniProt Q9UM73)",
    "PROPERTY_NAME": "Dmax",
    "UNIT_OF_MEASUREMENT": "%",
    "RECORDED_VALUE": 51
  },
  {
    "COMPOUND": "COc1cc(CCNCCCCCOc2cc(-c3scnc3C)ccc2[C@H](C)NC(=O)[C@@H]2C[C@@H](O)CN2C(=O)[C@@H](NC(C)=O)C(C)(C)C)c(C)cc1Nc1ncc(Cl)c(Nc2ccccc2S(=O)(=O)C(C)C)n1",
    "TARGET_OF_ASSAY": "EML4-ALK (Homo sapiens, UniProt Q9UM73)",
    "PROPERTY_NAME": "Dmax",
    "UNIT_OF_MEASUREMENT": "%",
    "RECORDED_VALUE": 64.9
  },
  {
    "COMPOUND": "COc1cc(CCNCCOCCOCCC(=O)N[C@H](C(=O)N2C[C@H](O)CC2C(=O)N[C@@H](C)c2ccc(-c3scnc3C)cc2)C(C)(C)C)c(C)cc1Nc1ncc(Cl)c(Nc2ccccc2S(=O)(=O)C(C)C)n1 (stereo partly shown)",
    "TARGET_OF_ASSAY": "EML4-ALK (Homo sapiens, UniProt Q9UM73)",
    "PROPERTY_NAME": "Dmax",
    "UNIT_OF_MEASUREMENT": "%",
    "RECORDED_VALUE": 58
  },
  {
    "COMPOUND": "COc1cc(CCN(C)CCCCCOc2cc(-c3scnc3C)ccc2[C@H](C)NC(=O)[C@@H]2C[C@@H](O)CN2C(=O)[C@@H](NC(C)=O)C(C)(C)C)c(C)cc1Nc1ncc(Cl)c(Nc2ccccc2S(=O)(=O)C(C)C)n1",
    "TARGET_OF_ASSAY": "EML4-ALK (Homo sapiens, UniProt Q9UM73)",
    "PROPERTY_NAME": "Dmax",
    "UNIT_OF_MEASUREMENT": "%",
    "RECORDED_VALUE": 68.4
  },
  {
    "COMPOUND": "COc1cc(CCN(C)C(=O)CCOCCOCCNc2cccc3c2C(=O)N(C2CCC(=O)NC2=O)C3=O)c(C)cc1Nc1ncc(Cl)c(Nc2ccccc2S(=O)(=O)C(C)C)n1 (stereo not shown)",
    "TARGET_OF_ASSAY": "EML4-ALK (Homo sapiens, UniProt Q9UM73)",
    "PROPERTY_NAME": "Dmax",
    "UNIT_OF_MEASUREMENT": "%",
    "RECORDED_VALUE": 44.8
  },
  {
    "COMPOUND": "COc1cc(CCNCCCC(=O)N[C@H](C(=O)N2C[C@H](O)C[C@H]2C(=O)N[C@@H](C)c2ccc(-c3scnc3C)cc2)C(C)(C)C)c(C)cc1Nc1ncc(Cl)c(Nc2ccccc2S(=O)(=O)C(C)C)n1",
    "TARGET_OF_ASSAY": "EML4-ALK (Homo sapiens, UniProt Q9UM73)",
    "PROPERTY_NAME": "Dmax",
    "UNIT_OF_MEASUREMENT": "%",
    "RECORDED_VALUE": 38.1
  }
]

I would be grateful if you could share the reported Dmax for COc1cc(CCN(C)C(=O)CCCCCCCC(=O)N[C@H](C(=O)N2C[C@H](O)C[C@H]2C(=O)N[C@@H](C)c2ccc(-c3scnc3C)cc2)C(C)(C)C)c(C)cc1Nc1ncc(Cl)c(Nc2ccccc2S(=O)(=O)C(C)C)n1 . 56.2

Which Dmax is reported for this compound? COc1cc(CCN(C)C(=O)CCOCCOCCOCC#Cc2cccc3c2C(=O)N(C2CCC(=O)NC2=O)C3=O)c(C)cc1Nc1ncc(Cl)c(Nc2ccccc2S(=O)(=O)C(C)C)n1 (stereo not shown) 53.3

Recorded Dmax for CN[C@@H](C)C(=O)N[C@H](C(=O)N1Cc2cc(OCCCCCNCCc3cc(OC)c(Nc4ncc(Cl)c(Nc5ccccc5S(=O)(=O)C(C)C)n4)cc3C)ccc2C[C@H]1C(=O)N[C@H]1CCCc2ccccc21)C(C)(C)C , please? 79.1

Entry COc1cc(CCN(C)C(=O)CCCCCCC(=O)N[C@H](C(=O)N2C[C@H](O)C[C@H]2C(=O)N[C@@H](C)c2ccc(-c3scnc3C)cc2)C(C)(C)C)c(C)cc1Nc1ncc(Cl)c(Nc2ccccc2S(=O)(=O)C(C)C)n1 : reported Dmax = ? 68.6
